Test system: NCI-H2023
Experiment notes: relative viability (nuclei count vs DMSO), 5 days (fraction); higher = more cells survive
Conditions: first compound 1 µM
Result type: relative viability
I'd appreciate a reply containing only the number, no unit.

Molecule	relative viability
CCN(CC)CCCCNc1ncc2cc(-c3cc(OC)cc(OC)c3)c(NC(=O)NC(C)(C)C)nc2n1 + Cc1nc(Nc2ncc(C(=O)Nc3c(C)cccc3Cl)s2)cc(N2CCN(CCO)CC2)n1 [Dasatinib] (partner 0.075 µM)	0.493
CCN(CC)CCCCNc1ncc2cc(-c3cc(OC)cc(OC)c3)c(NC(=O)NC(C)(C)C)nc2n1 + O=C(c1cc(Cc2n[nH]c(=O)c3ccccc23)ccc1F)N1CCN(C(=O)C2CC2)CC1 [Olaparib] (partner 8 µM)	0.449
O=c1cc(N2CCOCC2)oc2c(-c3cccc4c3sc3ccccc34)cccc12 + Cc1nc(NC(=O)N2CCC[C@H]2C(N)=O)sc1-c1ccnc(C(C)(C)C(F)(F)F)c1 [Alpelisib] (partner 2 µM)	0.487

QUERY: Which relative viability value is on record for O=c1cc(N2CCOCC2)oc2c(-c3cccc4c3sc3ccccc34)cccc12 + CC(=O)Nc1cccc(-n2c(=O)n(C3CC3)c(=O)c3c(Nc4ccc(I)cc4F)n(C)c(=O)c(C)c32)c1 [Trametinib] (partner 0.02 µM) ?
RESULT: 0.396
